Every entry's value here was drawn from paper PMC3680789.

What Kd was measured for each of the following?
# target or test system: T1, ScPif1 (Saccharomyces cerevisiae, UniProt P07271 40-859)
# T1 sequence: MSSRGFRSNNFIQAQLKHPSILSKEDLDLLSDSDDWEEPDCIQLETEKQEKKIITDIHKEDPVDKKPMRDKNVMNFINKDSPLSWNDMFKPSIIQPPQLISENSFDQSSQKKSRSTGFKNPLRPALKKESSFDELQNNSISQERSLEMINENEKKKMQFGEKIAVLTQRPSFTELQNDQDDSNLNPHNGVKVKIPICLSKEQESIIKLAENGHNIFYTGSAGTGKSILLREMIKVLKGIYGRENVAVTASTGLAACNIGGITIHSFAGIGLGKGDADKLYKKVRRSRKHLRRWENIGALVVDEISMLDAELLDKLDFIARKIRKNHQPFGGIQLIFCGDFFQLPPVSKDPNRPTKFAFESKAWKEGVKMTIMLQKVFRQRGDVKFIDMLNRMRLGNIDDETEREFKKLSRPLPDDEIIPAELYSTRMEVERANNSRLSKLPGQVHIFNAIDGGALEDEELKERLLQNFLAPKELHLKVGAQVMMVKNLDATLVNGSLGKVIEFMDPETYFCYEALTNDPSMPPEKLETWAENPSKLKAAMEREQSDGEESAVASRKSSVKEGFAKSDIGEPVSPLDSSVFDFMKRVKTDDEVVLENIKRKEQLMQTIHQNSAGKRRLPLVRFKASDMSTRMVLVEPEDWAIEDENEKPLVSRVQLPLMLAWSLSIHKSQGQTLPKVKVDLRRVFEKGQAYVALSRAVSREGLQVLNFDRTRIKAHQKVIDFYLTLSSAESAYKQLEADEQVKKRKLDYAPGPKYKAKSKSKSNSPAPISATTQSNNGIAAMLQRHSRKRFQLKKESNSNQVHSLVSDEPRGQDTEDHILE
# assay info: filter binding
# output: number + unit

CGGCCCGGCGGTCCGCGGTC (ssDNA) [G-rich 20-mer (GR)]    0.04 nM

Q: Could you share which Kd value was measured for CAAAGGACCCTTTGTGGATC (ssDNA) [non-G-rich 20-mer (NG)] ?
Ans: 0.2 nM
